Source listed as patent US10342796B2.

Task for the reader: assign each of the following compounds its reported GI50.
- Test system: SK-BR-3 (Her2 amp)
- Assay Notes: Growth inhibition GI50 in vitro (CCK8/MTT, 72 h)
- Format: cell-based, human
- Test Context: Homo sapiens, SK-BR-3; HER2 positive cell line; range of GI50; read-out: GI50 SK-BR-3
- Method: Human lung adenocarcinoma cell line Calu-3 (ATCC) was cultured with 1×MEM complete medium (10% FBS, 1% double-antibiotics, 1% NEAA (Gibco), 2 mM glutamine and 1 mM of sodium pyruvate). Human breast cancer cell line SK-BR-3 was cultured with McCOY'S5A complete medium (10% FBS). […] The suspension cells were collected by centrifugation. The supernatant was discard and the cell pellet was resuspended and counted. […] Dojindo CCK8 reagent kit was used as MTT assay. […] FC meter was used as microplate reader. […]

Problem: # GI50 lookup, item C=CC(=O)Nc1cc(Nc2nccc(-n3ccc4ccc(C#N)cc43)n2)c(OC)cc1N(C)CCN(C)C [Compound 60]
Result: 100 to 1000 nM

Problem: Another: C=CC(=O)Nc1cc(Nc2nccc(-n3ccc4c(C)cccc43)n2)c(OC)cc1N(C)CCN(C)C [Compound 98]
Result: 10 to 100 nM

Problem: Cool, now C=CC(=O)Nc1cc(Nc2cc(Nc3ccc(F)c(Cl)c3)ncn2)c(OC)cc1N1CCCN(C)CC1 [Compound 144]
Result: < 10 nM

Problem: What do we get for C=CC(=O)Nc1cc(Nc2ncnc(Nc3cccc(C(F)(F)F)c3)n2)c(OC)cc1N(C)CCN(C)C [Compound 113] ?
Result: 100 to 1000 nM

Problem: Repeat for the following compound: C=CC(=O)Nc1cc(Nc2nccc(-n3cc(C)c4ccccc43)n2)c(OC)cc1N(C)CCN(C)C [Compound 57]
Result: 100 to 1000 nM

---

- Tested on: NCI-H1781 (HER2 exon 20 G776VC mutation)
- Assay Notes: Growth inhibition GI50 in vitro (CCK8/MTT, 72 h)
- Assay type: cell-based
- Test Context: Homo sapiens, NCI-H1781; Table 16; 1000 nM to 0.03 nM serial dilution; read-out: GI50 H1781 (HER2 G776VC)
Metric: log10 GI50 (log10 of the value in nM)
Log10 applied to GI50; unit prior to transform: nM.

Problem: Item under review: C=CC(=O)Nc1cc(Nc2cc(Nc3ccc(OCC4CCOCC4)c(Cl)c3)ncn2)c(OC)cc1N(C)CCN(C)C . Reported log10 GI50?
Result: 1.29

Problem: Quick one: C=CC(=O)Nc1cc(Nc2cc(Nc3cc(F)c(OC)c(Cl)c3)ncn2)c(OC)cc1N(C)CCN(C)C
Result: -0.02

Problem: One more compound: C=CC(=O)Nc1cc(Nc2nccc(-n3ccc4c(OC)cccc43)n2)c(OC)cc1N(C)CCN(C)C
Result: 0.28

Problem: Repeat with C=CC(=O)Nc1cc(Nc2nccc(-n3ccc4c(OC)cc(Cl)cc43)n2)c(OC)cc1N(C)CCN(C)C
Result: 1.19

Problem: Query C=CC(=O)Nc1cc(Nc2cc(Nc3cccc(C#N)c3)ncn2)c(OC)cc1N(C)CCN(C)C next
Result: -0.02

---

Task for the reader: assign each of the following compounds its reported GI50.
- System: N87 (HER2 Amp)
- Assay Notes: Growth inhibition GI50 in vitro (CCK8/MTT, 72 h)
- Assay type: cell-based, human
- Test Context: Homo sapiens; HER2 positive cell line; range of GI50; read-out: GI50 N87

Problem: Request the reported GI50 associated with C=CC(=O)Nc1cc(Nc2ncc(Cl)c(Nc3ccc(OCc4ccccn4)c(Cl)c3)n2)c(OC)cc1N(C)CCN(C)C
Result: 0.01 to 0.1 µM

Problem: Note, next up: C=CC(=O)Nc1cc(Nc2cc(-c3cn(C)c4cc(F)ccc34)ncn2)c(OC)cc1N(C)CCN(C)C
Result: 0.01 to 0.1 µM

Problem: Further, for C=CC(=O)Nc1cc(Nc2cc(-c3cn(C(C)C)c4ccccc34)ncn2)c(OC)cc1N(C)CCN(C)C ?
Result: 0.01 to 0.1 µM

Problem: Record: C=CC(=O)Nc1cc(Nc2ncnc(Nc3cccc(Br)c3)n2)c(OC)cc1N1CCC(N2CCCC2)CC1
Result: < 0.01 µM

Problem: What about C=CC(=O)Nc1cc(Nc2cc(-c3cn(C(C)C)c4ccc(F)cc34)ncn2)c(OC)cc1N(C)CCN(C)C ?
Result: < 0.01 µM

Problem: # iterate: C=CC(=O)Nc1cc(Nc2nccc(-n3ccc4cc(C)ccc43)n2)c(OC)cc1N(C)CCN(C)C
Result: 0.1 to 1 µM

Problem: # repeat for C=CC(=O)Nc1cc(Nc2nccc(Nc3cccc(Cl)c3F)n2)c(OC)cc1N(C)CCN(C)C
Result: 0.1 to 1 µM

Problem: What do you have for C=CC(=O)Nc1cc(Nc2ncnc(Nc3cccc(Br)c3)n2)c(OC)cc1N(C)CCN(C)C ?
Result: < 0.01 µM

Problem: Quick one: C=CC(=O)Nc1cc(Nc2cc(-c3cn(CCC)c4ccccc34)ncn2)c(OC)cc1N(C)CCN(C)C
Result: 0.1 to 1 µM

Problem: What do we get for C=CC(=O)Nc1cc(Nc2cc(-c3cn(C4CCCC4)c4ccc(F)cc34)ncn2)c(OC)cc1N(C)CCN(C)C ?
Result: 0.1 to 1 µM

Problem: Try this compound too: C=CC(=O)Nc1cc(Nc2nccc(-n3ccc4ccc(C)cc43)n2)c(OC)cc1N(C)CCN(C)C
Result: 0.1 to 1 µM
